- Test system: HCT-15
- method summary: Growth inhibition of human HCT15 cells at 10 uM after 48 hrs by coulter counter analysis
- Assay type: functional
- assay setup: HCT-15, 48 h, read-out: GI
# inhibition of growth at 10 µM annotations

Worked cases, inhibition of growth at 10 µM given:
compound	inhibition of growth at 10 µM
Cc1csc(NC(=O)C(C)N2CCN(C)CC2)n1 (configuration not stated)	25.5%
Cc1cnc(NC(=O)CN2CCN(c3ccccc3)CC2)s1	< 10%

Input: Given the compound "CCOC(=O)c1sc(NC(=O)CN(C)C)nc1C" , what is its reported inhibition of growth at 10 µM?
Output: < 10%

Input: Given the compound "CN1CCN(CCC(=O)Nc2nc(-c3ccccc3)cs2)CC1" , what is its reported inhibition of growth at 10 µM?
Output: < 10%

Input: Given the compound "O=C(CCCl)Nc1nc(-c2ccccc2)cs1" , what is its reported inhibition of growth at 10 µM?
Output: 73%

Input: Given the compound CCOC(=O)c1sc(NC(=O)C(C)N2CCN(C)CC2)nc1C (configuration not stated) , what is its reported inhibition of growth at 10 µM?
Output: < 10%

----------
- Test system: UACC-62
- method summary: Growth inhibition of human UACC62 cells at 10 uM after 48 hrs by coulter counter analysis
- Assay type: functional
- assay setup: UACC-62, 48 h, read-out: GI
reported endpoint: inhibition of growth at 10 µM

compound	tested on	inhibition of growth at 10 µM
CC(C(=O)Nc1nccs1)N1CCN(C)CC1 (configuration not stated)	UACC-62	< 10%
CCOC(=O)c1sc(NC(=O)CCN2CCN(C)CC2)nc1C	UACC-62	< 10%
CCOC(=O)c1sc(NC(=O)CN(C)C)nc1C	UACC-62	< 10%
CCOC(=O)c1sc(NC(=O)C(C)N2CCCCC2)nc1C (configuration not stated)	UACC-62	< 10%
CN1CCN(CCC(=O)Nc2nc(-c3ccccc3)cs2)CC1	UACC-62	11.1%
CCOC(=O)c1sc(NC(=O)C(C)N2CCOCC2)nc1C (configuration not stated)	UACC-62	< 10%

Input: Given the compound "O=C(CCN1CCN(c2ccccc2)CC1)Nc1nc(-c2ccccc2)cs1" , what is its reported inhibition of growth at 10 µM?
Output: 33.2%

----------
- Tested on: HOP-92
- method summary: Growth inhibition of human HOP92 cells at 10 uM after 48 hrs by coulter counter analysis
- Format: functional
- assay setup: HOP-92, 48 h, read-out: GI
reported endpoint: inhibition of growth at 10 µM

compound	tested on	inhibition of growth at 10 µM
CCOC(=O)c1sc(NC(=O)C(C)N2CCN(C)CC2)nc1C (stereo unspecified)	HOP-92	< 10%
CCOC(=O)c1sc(NC(=O)CN(C)C)nc1C	HOP-92	< 10%
CCOC(=O)c1sc(NC(=O)CCN2CCN(C)CC2)nc1C	HOP-92	< 10%
CC(C(=O)Nc1nccs1)N1CCN(C)CC1 (stereo unspecified)	HOP-92	< 10%
CCOC(=O)c1sc(NC(=O)CCN2CCOCC2)nc1C	HOP-92	21.9%

Continue with the compound presented below.
Input: Given the compound "CCOC(=O)c1sc(NC(=O)CCN2CCN(c3ccccc3)CC2)nc1C" , what is its reported inhibition of growth at 10 µM?
Output: 17.5%
